Catalogue of Intracellular concentration in human cardiomyocytes: Prodrugs readings, one per entry.
# System: human cardiomyocytes
# assay.overview: cellular accumulation and metabolism in human cardiomyocytes
# Assay type: in vitro ADME
# measurement.conditions: 10 μM, 4 h
Kindly answer with a numeric value in pmol/10^6 cells, unit omitted.

CC(C)(CO)C(=O)SCCOP(=O)(NCc1ccccc1)OC[C@H]1O[C@@H](n2cnc3c(=O)[nH]c(N)nc32)[C@](C)(O)[C@@H]1O (mixture of isomers); 21
CC(C)OC(=O)CCc1ccccc1OP(=O)(N[C@@H](C)C(=O)OC(C)C)OC[C@H]1O[C@@H](n2cnc3c(N)nc(N)nc32)[C@](C)(O)[C@@H]1O (stereo partly shown); 70
CC(C)OC(=O)[C@H](C)N[P@](=O)(OC[C@H]1O[C@@H](n2ccc(=O)[nH]c2=O)[C@](C)(F)[C@@H]1O)Oc1ccccc1; 56

Quick one: Intracellular concentration in human cardiomyocytes: Prodrugs of COc1nc(N)nc2c1ncn2[C@@H]1O[C@H](COP(=O)(N[C@@H](C)C(=O)OCC(C)(C)C)Oc2cccc3ccccc23)[C@@H](O)[C@@]1(C)O (stereo partly shown) ?
800

* * *

# Tested on: human cardiomyocytes
# assay.overview: recording of human cardiomyocyte beating patterns
# Format: cell-based
# measurement.conditions: 2 μM, 12 h
observation.type: Beating rate of human cardiomyocytes (beats/minute)
Answer with a number only, understood to be in beats/minute.

CC(C)(CO)C(=O)SCCOP(=O)(NCc1ccccc1)OC[C@H]1O[C@@H](n2cnc3c(=O)[nH]c(N)nc32)[C@](C)(O)[C@@H]1O (mixture of isomers); 36.0
CC(C)OC(=O)CCc1ccccc1OP(=O)(N[C@@H](C)C(=O)OC(C)C)OC[C@H]1O[C@@H](n2cnc3c(N)nc(N)nc32)[C@](C)(O)[C@@H]1O (stereo partly shown); 36.0
COc1nc(N)nc2c1ncn2[C@@H]1O[C@H](COP(=O)(N[C@@H](C)C(=O)OCC(C)(C)C)Oc2cccc3ccccc23)[C@@H](O)[C@@]1(C)O (stereo partly shown); 36.0

Shift focus to the following entry.
Given the entry CC(C)OC(=O)[C@H](C)N[P@](=O)(OC[C@H]1O[C@@H](n2ccc(=O)[nH]c2=O)[C@](C)(F)[C@@H]1O)Oc1ccccc1 , report its measured Beating rate of human cardiomyocytes.
36.5

* * *

# Test system: human cardiomyocytes
# assay.overview: recording of human cardiomyocyte beating patterns
# Type: cell-based
# measurement.conditions: 2 μM, 24 h
In this section, each of the molecules is paired with its reported Beating rate of human cardiomyocytes.
Kindly provide the numeric value in beats/minute only, without the unit symbol.

Worked cases, Beating rate of human cardiomyocytes given:
CC(C)(CO)C(=O)SCCOP(=O)(NCc1ccccc1)OC[C@H]1O[C@@H](n2cnc3c(=O)[nH]c(N)nc32)[C@](C)(O)[C@@H]1O (mixture of isomers); 32.5
COc1nc(N)nc2c1ncn2[C@@H]1O[C@H](COP(=O)(N[C@@H](C)C(=O)OCC(C)(C)C)Oc2cccc3ccccc23)[C@@H](O)[C@@]1(C)O (stereo partly shown); 32.5
CC(C)OC(=O)CCc1ccccc1OP(=O)(N[C@@H](C)C(=O)OC(C)C)OC[C@H]1O[C@@H](n2cnc3c(N)nc(N)nc32)[C@](C)(O)[C@@H]1O (stereo partly shown); 34.0

What Beating rate of human cardiomyocytes value was documented for this molecule, CC(C)OC(=O)[C@H](C)N[P@](=O)(OC[C@H]1O[C@@H](n2ccc(=O)[nH]c2=O)[C@](C)(F)[C@@H]1O)Oc1ccccc1 ?
33.0
